A collection of compounds and their measured pEC50
Tested on: HCV replicon
Assay: HCV replicon assay (Huh-Luc cells, luciferase read-out)
Format: cell-based, HCV type Ib
Details: Hepatitis C virus, 72 h, three days incubation, luciferase activity
Scale note: pEC50 = -log10(concentration in M).

Below, each entry is followed by its recorded pEC50 result.
COC(=O)N[C@H](C(=O)N1CCC[C@H]1c1ncc(-c2ccc(Oc3cccc(-c4cnc([C@@H]5CCCN5C(=O)[C@@H](NC(=O)OC)[C@@H](C)OC)[nH]4)c3)cc2)[nH]1)[C@@H](C)OC ... 10.10
O=C(C(=O)N1CCC[C@H]1c1nc(-c2cccc(Oc3ccc(-c4cnc([C@@H]5CCCN5C(=O)C(=O)c5ccccc5)[nH]4)cc3)c2)c[nH]1)c1ccccc1 ... 7.24

Data request: Using the record for `O=C(c1cccnc1)N1CCC[C@H]1c1nc(-c2cccc(Oc3ccc(-c4cnc([C@@H]5CCCN5C(=O)c5cccnc5)[nH]4)cc3)c2)c[nH]1` , state its measured pEC50.
Data returned: 5.90

Data request: Determine from records and report pEC50 for `O=C([C@@H](O)c1ccccc1)N1CCC[C@H]1c1nc(-c2cccc(Oc3ccc(-c4cnc([C@@H]5CCCN5C(=O)[C@@H](O)c5ccccc5)[nH]4)cc3)c2)c[nH]1`
Data returned: 7.22

====

System: HCV replicon
Test: HCV replicon assay (Huh-Luc cells, luciferase read-out)
Assay type: cell-based, HCV type Ib
Details: Hepatitis C virus, 72 h, three days incubation, luciferase activity
Listed below: pEC50 values for each entry.
FYI, pEC50 means -log10 of a concentration in mol per litre.

Data request: Quickly give me recorded pEC50 for `COC(=O)N[C@H](C(=O)N1CCC[C@H]1c1nc(-c2cccc(Oc3ccc(-c4cnc([C@@H]5CCCN5C(=O)[C@@H](NC(=O)OC)C(C)C)[nH]4)cc3)c2)c[nH]1)C(C)C`
Data returned: 10.36

Data request: Name the recorded pEC50 of the item `COc1cccc(CCC(=O)N2CCC[C@H]2c2nc(-c3cccc(Oc4ccc(-c5cnc([C@@H]6CCCN6C(=O)CCc6cccc(OC)c6)[nH]5)cc4)c3)c[nH]2)c1` in your answer.
Data returned: 5.45

Data request: Please report the measured pEC50 for `COc1c(F)cc(CC(=O)N2CCC[C@H]2c2nc(-c3cccc(Oc4ccc(-c5cnc([C@@H]6CCCN6C(=O)Cc6cc(F)c(OC)c(F)c6)[nH]5)cc4)c3)c[nH]2)cc1F`
Data returned: 5.47

Data request: Give the value of pEC50 reported for the following: `CC(C)[C@@H](C(=O)N1CCC[C@H]1c1nc(-c2cccc(Oc3ccc(-c4cnc([C@@H]5CCCN5C(=O)[C@H](C(C)C)N(C)C)[nH]4)cc3)c2)c[nH]1)N(C)C`
Data returned: 5.94

Data request: Identify pEC50 associated with the compound `O=C(CCc1ccccc1F)N1CCC[C@H]1c1nc(-c2cccc(Oc3ccc(-c4cnc([C@@H]5CCCN5C(=O)CCc5ccccc5F)[nH]4)cc3)c2)c[nH]1`
Data returned: 5.64

Data request: For `COc1ccc(Oc2ccc(-c3c[nH]c([C@@H]4CCCN4C(=O)[C@@H](c4ccccc4)N(C)C)n3)cc2)cc1-c1c[nH]c([C@@H]2CCCN2C(=O)[C@@H](c2ccccc2)N(C)C)n1` , write its pEC50.
Data returned: 9.15

Data request: Look up pEC50 of `CC(C)C[C@@H](C(=O)N1CCC[C@H]1c1nc(-c2cccc(Oc3ccc(-c4cnc([C@@H]5CCCN5C(=O)[C@H](CC(C)C)N(C)C)[nH]4)cc3)c2)c[nH]1)N(C)C` and report it.
Data returned: 5.52

Data request: Report measured pEC50; entry is `CN(C)CCC(=O)N1CCC[C@H]1c1nc(-c2cccc(Oc3ccc(-c4cnc([C@@H]5CCCN5C(=O)CCN(C)C)[nH]4)cc3)c2)c[nH]1`
Data returned: 5.91

Data request: Specify measured pEC50 for `O=C(Cc1ccccc1)N1CCC[C@H]1c1ncc(-c2ccc(Oc3ccc(-c4cnc([C@@H]5CCCN5C(=O)Cc5ccccc5)[nH]4)cc3)cc2)[nH]1` .
Data returned: 5.95

Data request: State, in one line, measured pEC50 of `O=C(CCc1cccnc1)N1CCC[C@H]1c1nc(-c2cccc(Oc3ccc(-c4cnc([C@@H]5CCCN5C(=O)CCc5cccnc5)[nH]4)cc3)c2)c[nH]1`
Data returned: 8.40

Data request: Specify pEC50 for `Cc1cccc(CC(=O)N2CCC[C@H]2c2nc(-c3cccc(Oc4ccc(-c5cnc([C@@H]6CCCN6C(=O)Cc6cccc(C)c6)[nH]5)cc4)c3)c[nH]2)c1` and stop.
Data returned: 5.21

Data request: Look up and state reported pEC50 for `O=C(c1ccc(F)cc1)N1CCC[C@H]1c1nc(-c2cccc(Oc3ccc(-c4cnc([C@@H]5CCCN5C(=O)c5ccc(F)cc5)[nH]4)cc3)c2)c[nH]1`
Data returned: 5.36
